Numbers sourced from ChEMBL document CHEMBL4028802.

Species on record: Homo sapiens
test-protocol: Liver toxicity in human assessed as induction of drug-induced liver injury by measuring verified drug-induced liver injury concern status
endpoint-label: DILI_Concern

[[record]]
compound = "COc1nc(N)nc2c1ncn2[C@@H]1O[C@H](CO)[C@@H](O)[C@@H]1O"
result = "Less-Dili-Concern"

[[record]]
compound = "N[C@@H](C(=O)N[C@@H]1C(=O)N2C(C(=O)O)=C(Cl)CS[C@H]12)c1ccccc1 [CEFACLOR ANHYDROUS]"
result = "Less-Dili-Concern"

[[record]]
compound = "Cc1onc(-c2c(Cl)cccc2Cl)c1C(=O)N[C@@H]1C(=O)N2[C@@H]1SC(C)(C)[C@@H]2C(=O)O"
result = "Less-Dili-Concern"

[[record]]
compound = "CCCN(CCC)C(=O)Cc1c(-c2ccc(Cl)cc2)nc2ccc(Cl)cn12"
result = "Most-Dili-Concern"

[[record]]
compound = "CCOC(=O)c1ncn2c1CN(C)C(=O)c1cc(F)ccc1-2"
result = "No-Dili-Concern"

[[record]]
compound = "CC(=O)Oc1ccccc1C(=O)O"
result = "Less-Dili-Concern"

[[record]]
compound = "CCCCS(=O)(=O)N[C@@H](Cc1ccc(OCCCCC2CCNCC2)cc1)C(=O)O"
result = "No-Dili-Concern"

[[record]]
compound = "C[C@H]1c2cccc(O)c2C(=O)C2=C(O)[C@]3(O)C(=O)C(C(N)=O)=C(O)[C@@H](N(C)C)[C@@H]3[C@@H](O)[C@@H]21.O"
result = "Less-Dili-Concern"

[[record]]
compound = "CC1=C(/C=C/C(C)=C/C=C/C(C)=C/C(=O)O)C(C)(C)CCC1"
result = "Ambiguous-Dili-Concern"

[[record]]
compound = "CC(C)(CO)[C@@H](O)C(=O)NCCCO"
result = "No-Dili-Concern"

[[record]]
compound = "CCN(C(C)=O)c1cccc(-c2ccnc3c(C#N)cnn23)c1"
result = "No-Dili-Concern"

[[record]]
compound = "CCN(CC)CCOc1ccc(C(=C(Cl)c2ccccc2)c2ccccc2)cc1"
result = "Less-Dili-Concern"

[[record]]
compound = "CN1CCc2cccc3c2[C@H]1Cc1ccc(O)c(O)c1-3"
result = "No-Dili-Concern"

[[record]]
compound = "Cc1nnc(C(C)C)n1[C@@H]1C[C@H]2CC[C@@H](C1)N2CC[C@H](NC(=O)C1CCC(F)(F)CC1)c1ccccc1"
result = "Most-Dili-Concern"

[[record]]
compound = "O=C1CCc2cc(OCCCCc3nnnn3C3CCCCC3)ccc2N1"
result = "Ambiguous-Dili-Concern"

[[record]]
compound = "C=C1C[C@@H]2[C@H](CC[C@]3(C)C(=O)CC[C@@H]23)[C@@]2(C)C=CC(=O)C=C12"
result = "Most-Dili-Concern"

[[record]]
compound = "O=P1(NCCCl)OCCCN1CCCl (stereo not drawn) [IFOSFAMIDE]"
result = "Less-Dili-Concern"

[[record]]
compound = "CCCNCC(O)COc1ccccc1C(=O)CCc1ccccc1 (stereo not drawn)"
result = "Less-Dili-Concern"

[[record]]
compound = "COc1ccc2cc([C@H](C)C(=O)O)ccc2c1"
result = "Less-Dili-Concern"

[[record]]
compound = "CCCCN1C(=O)[C@@H]([C@H](O)C2CCCCC2)NC(=O)C12CCN(Cc1ccc(Oc3ccc(C(=O)O)cc3)cc1)CC2"
result = "Most-Dili-Concern"

[[record]]
compound = "CN1[C@@H]2C[C@@H](OC(=O)[C@H](CO)c3ccccc3)C[C@H]1[C@@H]1O[C@@H]12"
result = "No-Dili-Concern"

[[record]]
compound = "O=C1CC2(CCCC2)CC(=O)N1CCCCN1CCN(c2ncccn2)CC1"
result = "Ambiguous-Dili-Concern"

[[record]]
compound = "COC(=O)Nc1nc2ccc(C(=O)c3ccccc3)cc2[nH]1"
result = "Less-Dili-Concern"

